# ASSAYED_SYSTEM: CREBBP (Homo sapiens (Human))
# TEST_DESCRIPTION: In vitro enzyme inhibition assay - CREBBP inhibition (AlphaScreen, biotinylated H4-tetraacetyl peptide)
# Format: binding
# COND: Table 28; AlphaScreen, H4-tetraacetyl peptide
pIC50: −log10 of the molar value.
READOUT_TYPE: pIC50

Q: Given Cc1cccc(C)c1Oc1nc(NS(=O)(=O)C(C)C)cc(-c2cc(C)c(=O)n(C)c2)n1 , state its recorded pIC50.
Result: > 6.30

Q: Okay, and Cc1cc(-c2cc(NS(=O)(=O)C(C)C)nc(Oc3cccc4ccn(C)c34)n2)cn(C)c1=O ?
Result: > 6.30

Q: Field entry: CCCS(=O)(=O)Nc1cc(-c2ccc(=O)n(C)c2)nc(OC(C)C)n1
Result: > 6.30

Q: Cool, now CCCS(=O)(=O)Nc1cc(-c2ccc(=O)n(C)c2)nc(-c2ccccc2OC)n1
Result: 5.30 to 6.30

Q: // repeat for Cn1cc(-c2cc3nc(n2)Oc2cccc(c2)OCCCCCS(=O)(=O)N3)ccc1=O and report
Result: > 6.30

Q: Same for CCCCS(=O)(=O)Nc1cc(-c2ccc(=O)n(C)c2)nc(Oc2c(C)cc(F)cc2F)n1
Result: > 6.30

Q: Input Cc1cc(-c2cc(N)nc(Oc3ccc(F)cc3F)n2)cn(C)c1=O
Result: > 6.30

Q: What do you get for Cc1cccc(C#N)c1Oc1nc(NCc2ccccn2)cc(-c2ccc(=O)n(C)c2)n1 ?
Result: > 6.30

Q: Would you mind doing COCCn1cc(-c2cc(NS(=O)(=O)C(C)C)nc(Oc3ccc(F)cc3F)n2)cc(C)c1=O as well?
Result: 5.30 to 6.30

Q: Input CCCS(=O)(=O)Nc1cc(-c2cc(C)c(=O)n(C3COC3)c2)nc(Oc2c(C)cccc2C)n1
Result: 5.30 to 6.30

Q: Next entry: CC(=O)OCCn1cc(-c2cc(NS(=O)(=O)C(C)C)nc(Oc3ccc(F)cc3F)n2)cc(C)c1=O
Result: 5.30 to 6.30

Q: Another: COc1ccc(C)cc1Oc1nc(NS(=O)(=O)C(C)C)cc(-c2cc(C)c(=O)n(C)c2)n1
Result: > 6.30

Q: And Cc1cccc(F)c1Oc1nc(NCc2ccccc2)cc(-c2cc(C)c(=O)n(C)c2)n1 ?
Result: > 6.30

---

# ASSAYED_SYSTEM: CREBBP (Homo sapiens (Human), UniProt Q92793)
# Sequence (Q92793 1081-1197): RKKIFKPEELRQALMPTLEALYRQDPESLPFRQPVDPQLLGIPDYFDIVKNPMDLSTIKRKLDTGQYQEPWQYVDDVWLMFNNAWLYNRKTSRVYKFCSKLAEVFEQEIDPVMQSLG
# TEST_DESCRIPTION: In vitro enzyme inhibition assay - CREBBP inhibition (AlphaScreen, biotinylated H4-tetraacetyl peptide)
# Type: binding
# COND: Table 28; AlphaScreen, H4-tetraacetyl peptide
pIC50: −log10 of the molar value.
READOUT_TYPE: pIC50

Q: For the compound CCCS(=O)(=O)Nc1cc(-c2cc(C)c(=O)n(C)c2)nn1C , what pIC50 is on record?
Result: 5.30 to 6.30

Q: Would you mind doing CCCCS(=O)(=O)Nc1cc(-c2ccc(=O)n(C)c2)nc(Oc2c(F)cccc2Cl)n1 as well?
Result: > 6.30

Q: Another compound to look at: CCCCS(=O)(=O)Nc1cc(-c2c[nH]c(=O)c(C)c2)nc(Oc2c(C)cccc2Cl)n1
Result: > 6.30

---

# ASSAYED_SYSTEM: CREBBP (Homo sapiens (Human), UniProt Q92793)
# TEST_DESCRIPTION: In vitro enzyme inhibition assay - CREBBP inhibition (AlphaScreen, biotinylated H4-tetraacetyl peptide)
# Type: binding
# COND: Table 28; AlphaScreen, H4-tetraacetyl peptide
pIC50: −log10 of the molar value.
READOUT_TYPE: pIC50

Q: Look at this molecule and give its reported pIC50. Cc1cccc(F)c1Oc1nc(NS(=O)(=O)C2CCCC2)nc(-c2cc(C)c(=O)n(C)c2)n1
Result: > 6.30

Q: Repeat with CCCCS(=O)(=O)Nc1cc(-c2ccc(=O)n(C)c2)nc(Oc2c(F)cccc2CC)n1
Result: > 6.30

Q: Check CCS(=O)(=O)Nc1cc(-c2cc(C)c(=O)n(C)c2)nc(OC(C)C)n1 too.
Result: > 6.30
